Target: Ubiquitin carboxyl-terminal hydrolase 2 (Homo sapiens, UniProt O75604)
Sequence (O75604 whole entry): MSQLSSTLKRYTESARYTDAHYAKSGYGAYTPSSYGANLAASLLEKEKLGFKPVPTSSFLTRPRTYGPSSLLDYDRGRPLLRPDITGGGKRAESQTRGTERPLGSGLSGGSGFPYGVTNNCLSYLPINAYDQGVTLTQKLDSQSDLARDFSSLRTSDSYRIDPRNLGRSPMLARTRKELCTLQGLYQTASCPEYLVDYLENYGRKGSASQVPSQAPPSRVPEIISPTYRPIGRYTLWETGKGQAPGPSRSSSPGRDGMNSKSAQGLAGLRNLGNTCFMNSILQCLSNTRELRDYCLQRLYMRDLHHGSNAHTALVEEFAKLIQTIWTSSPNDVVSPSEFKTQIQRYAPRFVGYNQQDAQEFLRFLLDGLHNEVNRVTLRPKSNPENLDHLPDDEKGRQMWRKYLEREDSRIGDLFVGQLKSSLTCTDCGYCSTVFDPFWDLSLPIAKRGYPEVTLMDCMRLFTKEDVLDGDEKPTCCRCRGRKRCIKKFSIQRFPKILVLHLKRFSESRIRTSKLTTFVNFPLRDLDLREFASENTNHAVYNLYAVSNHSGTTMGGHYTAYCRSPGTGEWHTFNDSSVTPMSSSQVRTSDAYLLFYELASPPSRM
Experiment: Inhibition of human USP2a (258 to 605 residues) expressed in Escherichia coli BL21(DE3) using Ub-AMC as substrate incubated for 30 mins measured at 30 secs interval by fluorescence assay
Conditions: read-out: IC50
pIC50: −log10 of the molar value.
Attribute: pIC50

I am curious: what pIC50 value has been reported for `NCc1ccc(-c2csnn2)cc1` ?
< 2.30

// pIC50 lookup, key: `NC(=O)c1c(NC(=O)COCc2cc(-c3cccs3)on2)sc2c1CCCC2`
5.48

Query: pIC50; subject: `OCc1cc(-c2cccs2)on1`
2.89

Please look up its pIC50: CC(Oc1ccc(C#N)cc1)C(=O)OCc1cc(-c2cccs2)on1 (stereo not drawn)
< 4.30

Please report the recorded pIC50 for `Nc1cc(-c2ccccc2)n[nH]1` .
< 2.30

Item `NC(=O)c1c(N)sc2c1CCCC2` has what recorded pIC50?
5.06

Requested read-out: pIC50. Entry: `CCCn1nc(C(=O)OCc2cc(-c3cccs3)on2)c2ccccc2c1=O`
< 4.00

Quick check: pIC50 of `Cc1cc(C#N)cc(C)c1O` ?
< 2.30
